Property: self-splicing fitness (ln); scope: individual sequences
# assay_text: self-splicing fitness, log relative to wild type (ln ratio); higher = more splicing; Tetrahymena group I intron in knt gene, E. coli kanamycin selection, DiMSum; sequences stand for … in CUCUCU…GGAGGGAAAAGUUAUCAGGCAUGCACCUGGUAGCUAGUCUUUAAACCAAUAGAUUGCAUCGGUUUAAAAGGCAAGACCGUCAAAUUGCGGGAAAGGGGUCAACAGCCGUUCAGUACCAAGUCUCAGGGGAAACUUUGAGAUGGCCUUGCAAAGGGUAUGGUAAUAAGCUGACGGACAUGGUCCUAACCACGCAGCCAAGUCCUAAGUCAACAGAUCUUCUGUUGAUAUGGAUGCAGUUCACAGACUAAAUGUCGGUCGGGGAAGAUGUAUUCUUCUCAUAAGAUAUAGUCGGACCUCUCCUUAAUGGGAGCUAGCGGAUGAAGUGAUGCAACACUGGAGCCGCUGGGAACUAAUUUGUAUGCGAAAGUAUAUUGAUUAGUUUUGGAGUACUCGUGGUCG;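 also: selection with 25 µg/mL kanamycin versus none on LB agar overnight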
# condition_context: 30 °C
measure: self-splicing fitness (ln)

1. CAGUAGCAAUAUUACGGUGG : -0.646
2. GAGUAGCAAUAUUACGGGCG : -1.89
3. CUUCAGCAAUAUUACGGAAC : -2.45
4. CUCGAGCAAUAUUACGGUCG : -3.59
5. UUUAAGCAAUAUUACGAGGG : -2.32
6. GCUCAGCAAUAUUACGUAGU : -0.46
7. AUCCAGCAAUAUUACGCAUG : -3.68
8. GUCGAGCAAUAUUACGGUGG : -3.54
9. GUUCAGCAAUAUUACGGAGC : -2.39
10. UUACAGCAAUAUUACGAGAG : -1.48
11. AGUCAGCAAUAUUACGCAAC : -1.65
12. UAAGAGCAAUAUUACGGCUG : -1.55
13. GCUCAGCAAUAUUACGGUCC : -0.681
14. GUGUAGCAAUAUUACGCACU : -2.59
15. CUGCAGCAAUAUUACGCUGC : -2.88
16. UUCAAGCAAUAUUACGAGGC : -1.97
17. GAAUAGCAAUAUUACGGCGC : 0.0238
18. CCUGAGCAAUAUUACGGCGC : -4.1
19. CGUUAGCAAUAUUACGAUCA : -0.373
20. CACAAGCAAUAUUACGGAUC : -4.63
21. ACCGAGCAAUAUUACGCCGA : -2.48
22. AAAUAGCAAUAUUACGACAC : -1
23. AGUGAGCAAUAUUACGUCCC : 0.506
24. CCUUAGCAAUAUUACGUAGC : -2.7
25. CACCAGCAAUAUUACGCAAU : -4.25
26. AUGUAGCAAUAUUACGUGCC : -1.65
27. ACCCAGCAAUAUUACGGAAC : -1.91
28. UGUCAGCAAUAUUACGCGGC : -3.06
29. UAACAGCAAUAUUACGUGUC : -4.05
30. UUAUAGCAAUAUUACGGCCA : -1.18
31. UGACAGCAAUAUUACGUAUU : -3.43
32. ACAUAGCAAUAUUACGCUCC : -1.62
33. GUACAGCAAUAUUACGUUUC : -3.44
34. CAGUAGCAAUAUUACGCGCA : -1.08
35. UCGGAGCAAUAUUACGUGAA : -3.41
36. AGAGAGCAAUAUUACGAAUU : -1.19
37. AUUUAGCAAUAUUACGCUCG : -0.131
38. CAUUAGCAAUAUUACGGUCA : -2.02
39. AAGCAGCAAUAUUACGUUGU : -3.89
40. UGUGAGCAAUAUUACGAGGA : -2.55
41. GUCGAGCAAUAUUACGAGUU : -2.66
42. UUUGAGCAAUAUUACGGUAU : -4.23
43. AGUGAGCAAUAUUACGAACU : -2.3
44. UCUCAGCAAUAUUACGCGUA : -1.04
45. GUUAAGCAAUAUUACGAAUC : -1.8
46. CAGUAGCAAUAUUACGUACG : 0.212
47. GGAGAGCAAUAUUACGGAGG : -2.93
48. GUCUAGCAAUAUUACGAGAG : -2.4
49. UAUAAGCAAUAUUACGUUUG : -1.84
50. UGUGAGCAAUAUUACGACCU : -0.867
51. UUAAAGCAAUAUUACGUCGC : -3.09
52. UGGGAGCAAUAUUACGUUAC : -2.73
53. CACAAGCAAUAUUACGAUUG : -2.41
54. UACGAGCAAUAUUACGUACG : -3.76
55. CCGAAGCAAUAUUACGAACG : -0.139
56. UGAAAGCAAUAUUACGAUGA : -0.217
57. ACCAAGCAAUAUUACGAGCG : -0.886
58. AGCAAGCAAUAUUACGUGGU : -2.79
59. UUUUAGCAAUAUUACGUGUC : -2.93
60. ACCGAGCAAUAUUACGGGAA : -2.52
61. UUUAAGCAAUAUUACGUAAA : -0.434
62. GGGUAGCAAUAUUACGUAUA : -1.41
63. GCAUAGCAAUAUUACGCCUA : -1.83
64. GUUGAGCAAUAUUACGCACU : -1.26
65. GGAAAGCAAUAUUACGUUUU : -3.05
66. CGGCAGCAAUAUUACGCCCA : 0.189
67. AUGUAGCAAUAUUACGACGC : -0.952
